Please go through the items and note down their viability, T/C.
Test system: 648629-189-R-J1-PDC complex spheroids viability;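 also: drug exposure lasted seven days before viability readout; 100% = DMSO vehicle control wells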
Assay: Anticancer human tumor 648629-189-R-J1-PDC patient-derived bladder carcinoma cell line growth inhibition [CLK]
Conditions: second compound 3.16 µM; first compound 0.0316 µM; active compounds read low

Query: Fill blank: measured viability, T/C of the compound Cn1ncnc1[C@H]1c2n[nH]c(=O)c3cc(F)cc(c23)N[C@@H]1c1ccc(F)cc1 + CN1CCN(c2cc(C(=O)Nc3cc4cc(-c5cnn(C)c5)ccc4cn3)ccn2)CC1 is ____.
Result: 0.08%

Query: Same lookup for CCN1CCN(Cc2ccc(Nc3ncc(F)c(-c4cc(F)c5nc(C)n(C(C)C)c5c4)n3)nc2)CC1 + CNC(=O)c1ccc(Nc2nc(OC3CCCC3)c3c(-c4ccc5nc(C)oc5c4)c[nH]c3n2)c(OC)c1 , please.
Result: 20.9%

Query: Same lookup for CCCS(=O)(=O)Nc1ccc(F)c(C(=O)c2c[nH]c3ncc(-c4ccc(Cl)cc4)cc23)c1F + CNC(=O)c1ccc(Nc2nc(OC3CCCC3)c3c(-c4ccc5nc(C)oc5c4)c[nH]c3n2)c(OC)c1 , please.
Result: 16.6%

Query: Same lookup for CC(Nc1ccc2c(c1)OCCn1cc(N3C(=O)OCC3C(F)F)nc1-2)C(N)=O (stereo not given) + CN1CCN(c2cc(C(=O)Nc3cc4cc(-c5cnn(C)c5)ccc4cn3)ccn2)CC1 , please.
Result: 0.08%

Query: Same lookup for O=C(c1cc(Cc2n[nH]c(=O)c3ccccc23)ccc1F)N1CCN(C(=O)C2CC2)CC1 + CN1CCN(c2cc(C(=O)Nc3cc4cc(-c5cnn(C)c5)ccc4cn3)ccn2)CC1 , please.
Result: 0.08%
